Measured Activity of individual entries
Tested on: U-937
Assay procedure: Induction of apoptosis in human U937 cells assessed as condensed/fragmented nuclei at 10 ug/ml after 24 hrs using Hoechst 33342 staining by microscopy relative to solvent control
Assay type: functional
The answer is to be given in %; state only the numeric part.

These solved cases illustrate the format of a correct answer.
C[C@H](CCCN1CCCCC1)[C@H]1CC[C@@]2(C)C3=C(CC[C@]12C)[C@@]1(C)CC[C@H](O)C(C)(C)[C@@H]1CC3 = 5.5
CC(=O)O[C@H]1CC[C@]2(C)C3=C(CC[C@H]2C1(C)C)[C@]1(C)CC[C@H]([C@H](C)CCCN2CCN(CCO)CC2)[C@@]1(C)CC3 = 10.2
C[C@H](CCCN1CCN(CCO)CC1)[C@H]1CC[C@@]2(C)C3=C(CC[C@]12C)[C@@]1(C)CC[C@H](O)C(C)(C)[C@@H]1CC3 = 6.6

Consider the compound `CCN(CC)CCC[C@@H](C)[C@H]1CC[C@@]2(C)C3=C(CC[C@]12C)[C@@]1(C)CC[C@H](OC(C)=O)C(C)(C)[C@@H]1CC3` and give its recorded Activity.
6.9

Item `CCN(CC)CCC[C@@H](C)[C@H]1CC[C@@]2(C)C3=C(CC[C@]12C)[C@@]1(C)CC[C@H](O)C(C)(C)[C@@H]1CC3` : provide Activity
3

Tell us which Activity value is on record for COc1cc([C@@H]2c3cc4c(cc3[C@@H](O[C@@H]3O[C@@H]5CO[C@@H](C)O[C@H]5[C@H](O)[C@H]3O)[C@H]3COC(=O)[C@H]23)OCO4)cc(OC)c1O [ETOPOSIDE]
24.8

---

Tested on: U-937
Assay procedure: Induction of apoptosis in human U937 cells assessed as caspase 3/7 level at 10 ug/ml after 24 hrs by Caspase-Glo 3/7 assay relative to solvent control
Format: functional
Endpoint: Activity (%)
Could you give me the number in %? Just the number is fine.

Illustrative cases are given below, each with its answer.
CC(=O)O[C@H]1CC[C@]2(C)C3=C(CC[C@H]2C1(C)C)[C@]1(C)CC[C@H]([C@H](C)CCCN2CCN(CCO)CC2)[C@@]1(C)CC3 = 7.8
C[C@H](CCCN1CCN(CCO)CC1)[C@H]1CC[C@@]2(C)C3=C(CC[C@]12C)[C@@]1(C)CC[C@H](O)C(C)(C)[C@@H]1CC3 = 1.3
CCN(CC)CCC[C@@H](C)[C@H]1CC[C@@]2(C)C3=C(CC[C@]12C)[C@@]1(C)CC[C@H](OC(C)=O)C(C)(C)[C@@H]1CC3 = 4.9
C[C@H](CCCN1CCCCC1)[C@H]1CC[C@@]2(C)C3=C(CC[C@]12C)[C@@]1(C)CC[C@H](O)C(C)(C)[C@@H]1CC3 = 2.1
COc1cc([C@@H]2c3cc4c(cc3[C@@H](O[C@@H]3O[C@@H]5CO[C@@H](C)O[C@H]5[C@H](O)[C@H]3O)[C@H]3COC(=O)[C@H]23)OCO4)cc(OC)c1O [ETOPOSIDE] = 5.9

Give the value of Activity reported for the following: `CCN(CC)CCC[C@@H](C)[C@H]1CC[C@@]2(C)C3=C(CC[C@]12C)[C@@]1(C)CC[C@H](O)C(C)(C)[C@@H]1CC3`
2.4
